- Target System: AHR (Homo sapiens)
- Construct: U87 MG glioblastoma cells (ATCC #HTB-14) endogenously expressing AHR; endogenous in cells; host or cells: U87 MG glioblastoma cells (ATCC #HTB-14)
- Sequence (P35869 11-848): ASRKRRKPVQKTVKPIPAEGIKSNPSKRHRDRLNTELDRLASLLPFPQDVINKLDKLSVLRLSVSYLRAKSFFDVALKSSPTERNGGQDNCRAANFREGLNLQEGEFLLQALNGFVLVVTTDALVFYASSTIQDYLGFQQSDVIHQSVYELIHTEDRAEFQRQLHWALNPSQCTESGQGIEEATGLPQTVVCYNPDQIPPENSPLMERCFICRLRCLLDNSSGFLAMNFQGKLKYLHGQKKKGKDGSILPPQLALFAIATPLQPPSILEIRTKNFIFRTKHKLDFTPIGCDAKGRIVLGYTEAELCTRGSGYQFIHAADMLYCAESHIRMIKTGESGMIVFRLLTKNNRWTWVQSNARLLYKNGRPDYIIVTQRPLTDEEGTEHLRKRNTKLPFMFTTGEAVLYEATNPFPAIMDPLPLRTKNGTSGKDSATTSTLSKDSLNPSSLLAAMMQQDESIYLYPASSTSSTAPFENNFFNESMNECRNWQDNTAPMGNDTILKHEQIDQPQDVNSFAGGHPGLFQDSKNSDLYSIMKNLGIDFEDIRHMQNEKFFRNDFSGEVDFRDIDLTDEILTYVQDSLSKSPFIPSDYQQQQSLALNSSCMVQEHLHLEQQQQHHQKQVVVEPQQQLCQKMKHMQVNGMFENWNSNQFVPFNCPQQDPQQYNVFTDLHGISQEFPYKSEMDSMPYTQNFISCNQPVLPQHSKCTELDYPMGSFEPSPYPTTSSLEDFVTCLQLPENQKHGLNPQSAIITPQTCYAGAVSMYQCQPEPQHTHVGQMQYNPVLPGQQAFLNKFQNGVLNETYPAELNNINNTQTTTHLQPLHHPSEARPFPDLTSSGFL
- Assay Info: In vitro assay 1: antagonism in human cell line (AHR transactivation, firefly luciferase reporter, kynurenic acid prestimulated)
- Type: cell-based
- Conditions Used: AHR Antagonism Human IC50 [M]
Recorded IC50 for the following molecules
Give the number; M is assumed, so skip it.

CS(=O)(=O)c1ccc(-c2nc3c4ccccc4nc(N[C@@H]4CCNC4=O)n3n2)cc1 | 6.38e-07

Measured IC50 (AHR (Homo sapiens)), entry "COc1ccc(-c2nc3c4ccccc4nc(N[C@@H]4CCCCNC4=O)n3n2)cc1OC" : 3.49e-09

Measured IC50 (AHR (Homo sapiens)), entry "CCCCNC(=O)[C@H](C)Nc1nc2ccccc2c2nc(-c3cccc(C#N)c3)nn12" : 1.36e-07

Measured IC50 (AHR (Homo sapiens)), entry "N#Cc1ccccc1-c1nc2c3ccccc3nc(N[C@@H]3CCCCNC3=O)n2n1" : 1.44e-09

Measured IC50 (AHR (Homo sapiens)), entry "O=C1NCCCC[C@H]1Nc1nc2ccccc2c2nc(-c3cc(C(F)(F)F)ccn3)nn12" : 3.5e-08

Measured IC50 (AHR (Homo sapiens)), entry "CCOc1ccc(-c2nc3c4ccccc4nc(N[C@@H]4CCCCNC4=O)n3n2)cc1" : 7.6e-10
